- testedSystem: human Gal-3 (hGal-3) (Homo sapiens (Human), UniProt P17931)
- Sequence (P17931 whole entry): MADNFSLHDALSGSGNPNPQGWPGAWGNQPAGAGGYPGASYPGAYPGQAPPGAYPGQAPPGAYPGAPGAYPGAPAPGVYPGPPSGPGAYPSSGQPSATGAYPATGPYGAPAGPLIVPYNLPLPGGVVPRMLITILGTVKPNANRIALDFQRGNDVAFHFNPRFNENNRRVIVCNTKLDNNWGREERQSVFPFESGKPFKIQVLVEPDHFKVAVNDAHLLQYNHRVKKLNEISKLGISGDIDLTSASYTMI
So basically: is IC50 under 70 nM? Then t. Not under? Then f.

Just wondering, is IC50 of CO[C@@H]1[C@@H](n2cc(-c3ccc(Cl)c(F)c3F)nn2)[C@@H](O)[C@@H](CO)O[C@@H]1Cc1cn(C2(CF)CCC2)nn1 below 70 nM?
t

Just wondering, is IC50 of CO[C@@H]1[C@@H](n2cc(-c3ccc(Cl)c(F)c3F)nn2)[C@@H](O)[C@@H](CO)O[C@@H]1Cc1cn(C2(C(F)(F)F)CCCC2)nn1 below 70 nM?
t

Just wondering, is IC50 of CO[C@@H]1[C@@H](n2cc(-c3ccc(Cl)c(F)c3F)nn2)[C@@H](O)[C@@H](CO)O[C@@H]1Cc1cn(C2CCOCC2(F)F)nn1 (single isomer, unassigned) below 70 nM?
t

Just wondering, is IC50 of CO[C@@H]1[C@@H](n2cc(-c3ccc(C)c(F)c3F)nn2)[C@@H](O)[C@@H](CO)O[C@@H]1Cn1cc(C2(O)CC2)nn1 below 70 nM?
f
